tested on: HCT-15 colon; assay: NCI tumour cell line growth inhibition, 48 h; in the data active means GI50 below about 0.43 µM; inactive means the rest
Outcomes: yes (1) = active, no (0) = inactive

1. NC(=S)N/N=C/c1cc(-c2cccc(N)c2)ccn1 : no (0)
2. CCCCCc1ccc(S(=O)(=O)Nc2cc(-c3csc(NC(C)=O)n3)ccc2N2CCN(C)CC2)cc1 : no (0)
3. CC[C@@]1(O)C(=O)OCc2c1cc1n(c2=O)Cc2c-1nc1cc(F)c(C)c3c1c2[C@@H](N)CC3 : yes (1)
4. O=C(Nc1ccc(Cl)c(Cl)c1)Nc1ccccc1O : no (0)
5. O=C(CSC(c1ccccc1)c1ccccc1)N/N=C/c1ccco1 : no (0)
